B1: BicD2-CTD (C-terminal cargo-binding domain of human Bicaudal D2, residues 715-804) [human] / full-length GTP-bound Rab6a/Q72L with N-terminal GST tag [human] (parent complex)
chain 1: YENEKAMVTETMMKLRNELKALKEDAATFSSLRAMFATRCDEYITQLDEMQRQLAAAEDEKKTLNSLLRMAIQQKLALTQRLELLELDHE
chain 2: MSTGGDFGNPLRKFKLVFLGEQSVGKTSLITRFMYDSFDNTYQATIGIDFLSKTMYLEDRTVRLQLWDTAGLERFRSLIPSYIRDSTVAVVVYDITNVNSFQQTTKWIDDVRTERGSDVIIMLVGNKTDLADKRQVSIEEGERKAKELNVMFIETSAKAGYNVKQLFRRVAAALPGMESTQDRSREDMIDIKLEKPQEQPVSEGGCSC

# Variants of: B1
# MEASUREMENT_PROTOCOL: GST pull-down, SDS-PAGE band quantification; parent: 1; read off a plot
OBSERVABLE: ratio to parent

{"MUTATION_ID": "chain 2 S81A", "ratio to parent": "~1"}
{"MUTATION_ID": "chain 2 L51A", "ratio to parent": "~1.1"}
{"MUTATION_ID": "chain 2 F75A", "ratio to parent": "~0.02"}
{"MUTATION_ID": "chain 2 F50A", "ratio to parent": "~0.37"}

Please report ratio to parent for every entry that follows.
1. chain 2 K53A
2. chain 2 D49A
3. chain 2 R63A
4. chain 2 Q65A
5. chain 2 L78A
6. chain 2 I46A
7. chain 2 P80A

~0.01
~0.04
~0.07
~0.48
~0.57
~0.07
~0.75

Please report ratio to parent for every entry that follows.
1. chain 2 Y42A
2. chain 2 Y82A
3. chain 2 R84A

~0.38
~0.16
~1

Please report ratio to parent for every entry that follows.
1. chain 2 I48A
2. chain 2 Q43A
3. chain 2 Y35A

1: ~1.3; 2: ~1; 3: ~0.4
